Recorded in vitro relative activity (Mevinolin = 1) by entry
Subject Of Test: 3-hydroxy-3-methyl-glutaryl-coenzyme A (HMG-CoA) reductase (Rattus norvegicus)
Construct: the livers were removed from the animals and placed on ice; from tissue; host or cells: liver of male Rico rats fed colestyramine; 100,000 g (microsomal) pellet, frozen at -78° C
Sequence (P51639 whole entry): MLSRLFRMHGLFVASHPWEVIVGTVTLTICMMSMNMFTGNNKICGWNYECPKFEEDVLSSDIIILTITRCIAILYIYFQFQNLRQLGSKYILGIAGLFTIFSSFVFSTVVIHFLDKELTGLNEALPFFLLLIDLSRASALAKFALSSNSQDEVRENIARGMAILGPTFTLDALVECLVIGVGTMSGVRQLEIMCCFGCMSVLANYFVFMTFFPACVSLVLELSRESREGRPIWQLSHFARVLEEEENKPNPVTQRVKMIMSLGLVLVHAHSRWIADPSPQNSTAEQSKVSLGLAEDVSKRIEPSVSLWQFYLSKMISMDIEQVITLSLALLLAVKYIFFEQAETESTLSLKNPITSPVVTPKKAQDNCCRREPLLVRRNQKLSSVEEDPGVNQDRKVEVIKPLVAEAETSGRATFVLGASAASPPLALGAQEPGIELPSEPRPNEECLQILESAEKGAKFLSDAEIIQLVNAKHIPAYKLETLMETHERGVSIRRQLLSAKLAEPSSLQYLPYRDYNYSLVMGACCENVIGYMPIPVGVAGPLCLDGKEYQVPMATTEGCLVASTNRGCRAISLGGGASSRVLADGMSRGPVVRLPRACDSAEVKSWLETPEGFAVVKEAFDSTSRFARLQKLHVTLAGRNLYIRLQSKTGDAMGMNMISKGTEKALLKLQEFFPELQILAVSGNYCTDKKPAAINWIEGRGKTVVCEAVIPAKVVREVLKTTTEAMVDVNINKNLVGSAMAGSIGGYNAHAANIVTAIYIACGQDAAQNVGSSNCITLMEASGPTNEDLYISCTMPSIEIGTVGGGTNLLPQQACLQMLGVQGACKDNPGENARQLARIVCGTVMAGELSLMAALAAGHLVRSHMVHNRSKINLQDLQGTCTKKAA
Assay Protocol: enzyme activity determination, inhibition of HMG-CoA reductase relative to mevinolin
Assay type: biochemical, Male Rico rats (liver)
Condition Info: relative inhibitory potency; IC50 of reference mevinolin set at 1 and compared with simultaneously determined IC50 of test compound; 20 min pre-incubation, 60 min at 37° C.
Measurement Name: in vitro relative activity (Mevinolin = 1)

> print(dat)
                                   molecule  reported.result
1  C=CCn1ccc2c(-c3ccc(F)cc3)c(/C=C/[C@@H](O)C[C@@H](O)CC(=O)O)c(C(C)C)nc21 (relative stereo)               10
2  CC(C)c1nc2c(ccn2CCc2ccccc2)c(-c2ccc(F)cc2)c1/C=C/[C@@H](O)C[C@@H](O)CC(=O)O (relative stereo)               10
3  COC(=O)C[C@H](O)C[C@H](O)/C=C/c1c(C(C)C)nc2c(ccn2Cc2ccccc2)c1-c1ccc(F)cc1 (relative stereo)                4
4  CC(C)c1nc2c(ccn2C(C)C)c(-c2ccc(F)cc2)c1/C=C/[C@@H](O)C[C@@H](O)CC(=O)O (relative stereo)                3
